biological target: Histone deacetylase 4 (Homo sapiens)
Sequence (P56524 whole entry): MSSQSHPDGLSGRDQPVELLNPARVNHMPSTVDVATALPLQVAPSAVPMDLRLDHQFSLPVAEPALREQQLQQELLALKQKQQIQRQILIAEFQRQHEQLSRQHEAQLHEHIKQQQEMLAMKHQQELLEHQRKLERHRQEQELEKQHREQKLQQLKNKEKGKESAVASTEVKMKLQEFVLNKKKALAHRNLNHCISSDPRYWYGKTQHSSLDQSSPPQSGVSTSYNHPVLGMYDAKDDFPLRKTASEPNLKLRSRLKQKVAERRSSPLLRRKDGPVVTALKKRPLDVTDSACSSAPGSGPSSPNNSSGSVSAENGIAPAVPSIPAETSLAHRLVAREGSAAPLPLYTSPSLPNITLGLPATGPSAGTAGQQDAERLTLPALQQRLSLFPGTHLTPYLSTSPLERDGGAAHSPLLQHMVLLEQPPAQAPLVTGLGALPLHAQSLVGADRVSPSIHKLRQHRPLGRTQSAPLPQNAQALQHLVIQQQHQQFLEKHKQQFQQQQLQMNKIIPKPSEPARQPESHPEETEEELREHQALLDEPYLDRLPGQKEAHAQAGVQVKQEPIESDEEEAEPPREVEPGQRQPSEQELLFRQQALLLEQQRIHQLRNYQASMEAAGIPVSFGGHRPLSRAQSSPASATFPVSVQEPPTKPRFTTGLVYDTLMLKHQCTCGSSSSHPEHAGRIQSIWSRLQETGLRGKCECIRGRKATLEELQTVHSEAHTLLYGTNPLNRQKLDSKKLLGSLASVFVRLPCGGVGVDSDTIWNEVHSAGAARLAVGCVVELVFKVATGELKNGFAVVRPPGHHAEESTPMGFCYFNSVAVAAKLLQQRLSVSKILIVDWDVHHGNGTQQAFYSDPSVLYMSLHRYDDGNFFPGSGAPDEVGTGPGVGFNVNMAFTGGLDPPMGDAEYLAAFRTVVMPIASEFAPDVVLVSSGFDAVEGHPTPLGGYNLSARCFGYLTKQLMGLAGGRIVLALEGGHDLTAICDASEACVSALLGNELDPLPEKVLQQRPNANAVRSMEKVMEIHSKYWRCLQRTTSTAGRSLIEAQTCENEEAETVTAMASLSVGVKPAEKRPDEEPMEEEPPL
READOUT TYPE: pIC50
Just the number, please; pIC50 means minus log10 of the concentration in mol/L.

# pIC50 (molecule: O=C(CCC1C(=O)N(c2ccc(Cl)cc2)C(=O)N1Cc1ccccc1)Nc1ccc(C(=O)NO)cc1 (configuration not stated) ) is 4.57

* * *

What follows is a record of IC50 for Histone deacetylase 2 (Homo sapiens).
READOUT TYPE: IC50 (nM)

Reported IC50 ( O=C(CCC1C(=O)N(c2ccc(Cl)cc2)C(=O)N1Cc1ccccc1)Nc1ccc(C(=O)NO)cc1 (configuration not stated) ) = 203

For reference, reported IC50 for Cc1ccc(CN2C(=O)N(c3ccc(Cl)cc3)C(=O)C2CCC(=O)Nc2ccc(C(=O)NO)cc2)cc1 (configuration not stated) stands at 277

All values here come from ChEMBL document CHEMBL4304789.
